Biological target: KRAS-G12C/SOS1 (Homo sapiens (Human), UniProt Q07889)
Sequence (Q07889 whole entry, stated change not applied): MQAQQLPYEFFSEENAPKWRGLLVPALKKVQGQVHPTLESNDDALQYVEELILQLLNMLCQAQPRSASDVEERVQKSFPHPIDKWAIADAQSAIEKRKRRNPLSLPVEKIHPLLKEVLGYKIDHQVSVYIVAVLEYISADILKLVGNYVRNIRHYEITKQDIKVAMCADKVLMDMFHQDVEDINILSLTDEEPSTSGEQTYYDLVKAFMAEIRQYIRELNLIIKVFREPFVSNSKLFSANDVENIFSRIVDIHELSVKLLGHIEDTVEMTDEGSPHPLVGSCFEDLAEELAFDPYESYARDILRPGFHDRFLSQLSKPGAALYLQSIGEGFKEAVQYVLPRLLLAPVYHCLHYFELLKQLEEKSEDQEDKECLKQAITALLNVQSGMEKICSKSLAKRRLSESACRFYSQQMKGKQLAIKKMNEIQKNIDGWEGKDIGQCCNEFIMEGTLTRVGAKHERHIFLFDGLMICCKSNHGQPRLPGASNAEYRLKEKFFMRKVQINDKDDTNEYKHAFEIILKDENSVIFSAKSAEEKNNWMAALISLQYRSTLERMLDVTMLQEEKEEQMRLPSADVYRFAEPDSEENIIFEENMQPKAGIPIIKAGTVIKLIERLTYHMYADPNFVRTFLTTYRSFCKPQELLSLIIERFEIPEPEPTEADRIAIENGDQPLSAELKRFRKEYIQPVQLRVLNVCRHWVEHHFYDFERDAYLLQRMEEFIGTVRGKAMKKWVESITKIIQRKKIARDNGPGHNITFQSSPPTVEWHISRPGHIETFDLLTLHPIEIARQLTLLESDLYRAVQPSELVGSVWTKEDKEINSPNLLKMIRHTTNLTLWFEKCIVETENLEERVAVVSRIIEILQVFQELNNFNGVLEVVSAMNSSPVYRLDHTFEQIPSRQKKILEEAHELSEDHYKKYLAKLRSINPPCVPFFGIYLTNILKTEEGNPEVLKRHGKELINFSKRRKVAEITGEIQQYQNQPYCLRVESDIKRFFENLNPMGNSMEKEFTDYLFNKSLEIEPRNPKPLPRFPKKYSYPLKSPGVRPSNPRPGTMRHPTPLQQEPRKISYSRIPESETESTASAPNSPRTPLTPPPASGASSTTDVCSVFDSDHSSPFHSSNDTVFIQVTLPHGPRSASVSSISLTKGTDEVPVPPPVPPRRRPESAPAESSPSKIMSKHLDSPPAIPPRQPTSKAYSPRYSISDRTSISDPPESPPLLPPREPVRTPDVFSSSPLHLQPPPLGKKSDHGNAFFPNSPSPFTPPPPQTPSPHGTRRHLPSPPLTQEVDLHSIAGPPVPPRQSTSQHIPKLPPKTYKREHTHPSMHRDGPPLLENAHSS
Assay: Detection of inhibitory effects of compounds on KRAS-G12C/SOS1 (KRASG12C/SOS binding kit, HTRF)
Details: Em665/620, read-out: IC50, inhibitory activity on interaction of KRAS-G12C/SOS1
pIC50: −log10 of the molar value.
Below, each of the compounds is paired with its reported pIC50 value.

Check out these entries, answers already filled in.
COc1nc(C2(O)CCN(C(=O)[C@H](C)O)CC2)cc2c(N[C@H](C)c3cccc(C(F)F)c3F)ccnc12 [Compound B-174]	6.30 to 7.00
C[C@@H](Nc1ccnc2cnc(C3(O)CCN(C(=O)[C@H]4C[C@@H](O)CN4)CC3)cc12)c1cccc(C(F)F)c1F [Compound B-145]	≥ 7.00
COc1cc2nccc(N[C@H](C)c3cccc(C(F)F)c3F)c2cc1C1CCS(=O)(=O)CC1 [Compound A-46]	≥ 7.00

# lookup: pIC50 of C[C@H](O)C(=O)N1CCC(O)(c2cc3c(N[C@H](C)c4cccc(C(F)F)c4F)c(F)cnc3cn2)CC1 [Compound B-124]
≥ 7.00
